# credit: the supplement of paper PMC10567573

B1: RBBP5 (parent)
chain: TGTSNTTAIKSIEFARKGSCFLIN

Variants of: B1
procedure details: protein stability index of a GFP-peptide fusion (GPS, HEK-293T) (PSI 1-6); higher = more stable;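 note: lentivirally expressed fusions sorted by FACS into six bins by GFP to DsRed ratio, PSI derived from sequencing read proportions per bin multiplied by bin number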
condition: c terminus: a fixed tail appended
Kind request: treat 2 as inclusive, so protein stability index at 2 or higher is Y, anything lower is N.

N5C    N
F21I    Y
L22Q    Y

Problem: Determine whether this variant has protein stability index no lower than 2: `E13Y`
Result: Y

Problem: Determine whether this variant has protein stability index no lower than 2: `F21D`
Result: Y

Problem: Determine whether this variant has protein stability index no lower than 2: `F14P`
Result: Y

Problem: Is it the case that `T1H` has protein stability index reaching or exceeding 2?
Result: Y

Problem: Check this variant for protein stability index at or above 2: `I9W`
Result: N

Problem: Given the entry `T3Y` , answer whether its protein stability index meets or surpasses 2.
Result: N
